tested on: Mus musculus; assay: Hypoglycemic activity in diabetic KK-Ay mouse at 5 mg/kg, ip assessed as blood glucose level per 100 mL blood after 7 hrs; format: functional; conditions: route intraperitoneal
Kindly state Activity for each of the entries shown.
One number for each entry, in mg/dL.

These solved cases illustrate the format of a correct answer.
[
  {
    "MOLECULE": "COc1ccc(/C=C/C(=O)O[C@@H]2[C@H](O)[C@@H](O[C@@H]3O[C@@H](C)[C@H](O[C@@H]4OC[C@@H](O[C@@H]5O[C@H](CO)[C@H](O)[C@H](O)[C@H]5O)[C@H](O)[C@H]4O)[C@@H](O)[C@H]3O)[C@H](OC(=O)[C@]34CCC(C)(C)C[C@@H]3C3=CCC5[C@@]6(C)C[C@H](O[C@@H]7O[C@H](CO)[C@@H](O)[C@H](O)[C@H]7O)[C@H](O)[C@@](C)(C(=O)O)[C@@H]6CC[C@@]5(C)[C@]3(CO)CC4)O[C@@H]2C)cc1OC (some centres undefined)",
    "EXPERIMENTAL TARGET": "Mus musculus",
    "Activity / mg/dL": 182
  },
  {
    "MOLECULE": "COc1ccc(/C=C/C(=O)O[C@@H]2[C@H](O[C@@H]3O[C@@H](C)[C@H](O)[C@@H](O)[C@H]3O)[C@@H](O[C@@H]3O[C@@H](C)[C@H](O[C@@H]4OC[C@@H](O[C@@H]5O[C@H](CO)[C@H](O)[C@H](O)[C@H]5O)[C@H](O)[C@H]4O)[C@@H](O)[C@H]3O)[C@H](OC(=O)[C@]34CCC(C)(C)C[C@@H]3C3=CC[C@@H]5[C@@]6(C)C[C@H](O[C@@H]7O[C@H](CO)[C@@H](O)[C@H](O)[C@H]7O)[C@H](O)[C@@](C)(C(=O)O)[C@@H]6CC[C@@]5(C)[C@]3(CO)CC4)O[C@@H]2C)cc1",
    "EXPERIMENTAL TARGET": "Mus musculus",
    "Activity / mg/dL": 146
  },
  {
    "MOLECULE": "COc1cc(/C=C/C(=O)OC[C@@]2(O[C@H]3O[C@H](COC(C)=O)[C@@H](OC(=O)/C=C/c4ccc(O)c(OC)c4)[C@H](O[C@@H]4O[C@H](COC(C)=O)[C@@H](O[C@@H]5O[C@H](CO)[C@@H](O)[C@H](O)[C@H]5O)[C@H](O)[C@H]4O)[C@H]3O[C@@H]3O[C@H](CO)[C@@H](O)[C@H](O)[C@H]3O)O[C@H](CO)[C@@H](O)[C@@H]2OC(=O)c2ccccc2)ccc1O",
    "EXPERIMENTAL TARGET": "Mus musculus",
    "Activity / mg/dL": 368
  }
]

Inquiry: Can you look up the measured Activity of `COc1ccc(/C=C/C(=O)O[C@@H]2[C@H](O)[C@@H](O[C@@H]3O[C@@H](C)[C@H](O[C@@H]4OC[C@@H](O[C@@H]5O[C@H](CO)[C@H](O)[C@H](O)[C@H]5O)[C@H](O)[C@H]4O)[C@@H](O)[C@H]3O)[C@H](OC(=O)[C@]34CCC(C)(C)C[C@@H]3C3=CC[C@@H]5[C@@]6(C)C[C@H](O[C@@H]7O[C@H](CO)[C@@H](O)[C@H](O)[C@H]7O)[C@H](O)[C@@](C)(C(=O)O)[C@@H]6CC[C@@]5(C)[C@]3(CO)CC4)O[C@@H]2C)cc1` for me?
Reply text: 325

This collection of values is drawn from ChEMBL document CHEMBL1145691.
